These data points were gathered from patent US8435587B2.

# Experiment Notes: Rate of dissolution of rebaudioside A forms in H2O at 25° C.
# Assay type: physicochemical
# Condition Context: in words

Compound	Rate of dissolution in H2O at 25° C.
C=C1C[C@@]23CC[C@H]4[C@@](C)(CCC[C@@]4(C)C(=O)O[C@@H]4O[C@H](CO)[C@@H](O)[C@H](O)[C@H]4O)[C@@H]2CC[C@]1(O[C@@H]1O[C@H](CO)[C@@H](O)[C@H](O[C@@H]2O[C@H](CO)[C@@H](O)[C@H](O)[C@H]2O)[C@H]1O[C@@H]1O[C@H](CO)[C@@H](O)[C@H](O)[C@H]1O)C3 [Form 4, rebaudioside A]	High
C=C1C[C@@]23CC[C@H]4[C@@](C)(CCC[C@@]4(C)C(=O)O[C@@H]4O[C@H](CO)[C@@H](O)[C@H](O)[C@H]4O)[C@@H]2CC[C@]1(O[C@@H]1O[C@H](CO)[C@@H](O)[C@H](O[C@@H]2O[C@H](CO)[C@@H](O)[C@H](O)[C@H]2O)[C@H]1O[C@@H]1O[C@H](CO)[C@@H](O)[C@H](O)[C@H]1O)C3 [Form 3, rebaudioside A]	High
